Target: T1, CD81 (UniProt P60033 1-236, limits assumed)
T1 construct: whole, on cells; also called CD81 receptor
T1 sequence (looked up): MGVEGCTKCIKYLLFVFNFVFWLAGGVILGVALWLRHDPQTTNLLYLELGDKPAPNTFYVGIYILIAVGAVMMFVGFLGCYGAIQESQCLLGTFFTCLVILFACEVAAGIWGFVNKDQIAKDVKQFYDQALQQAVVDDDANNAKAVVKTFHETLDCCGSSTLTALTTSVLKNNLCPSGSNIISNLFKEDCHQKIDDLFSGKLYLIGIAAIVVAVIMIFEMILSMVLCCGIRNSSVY
Test: cell ELISA;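 note: antibody binding to HuH7 cells expressing CD81 versus a CD81-negative HuH7 control line, bound antibody detected by secondary reagent, absorbance at 450 nm with 620 nm reference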
Endpoint: ELISA data

* CD81K13 HC 06-hVH_1_3 / LC 06-hVK_1_39 (antibody, V domains shown, human constant region) VH: QVQLVQSGAEVKKPGASVKVSCKASGYTFKDSYLHWVRQAPGQRLEWMGRIDTGNGNVKFDPKFQGRVTITTDTSASTAYMELSSLRSEDTAVYYCAPYGYGFHSWGQGTLVTVSS VL: DIQMTQSPSSLSASVGDRVTITCRASENIYRTLAWYQQKPGKAPKLLIYAATTLASGVPSRFSGSGSGTDFTLTISSLQPEDFGTYYCQHFWGTPWTFGQGTKVEIK | 0.323
* CD81K13 HC 04-hVH_1_69 / LC 01-hVK_3_15 (antibody, V domains shown, human constant region) VH: EVQLVESGGGLVQPGRSLRLSCTASGFNFKDSYLHWVRQAPGQGLEWMGRIDTGNGNVKFDPKFQGRVTITADESTSTAYMELSSLRSEDTAVYYCVPYGYGFHSWGQGTLVTVSS VL: EIVMTQSPATLSVSPGERATLSCRASENIYRTLAWYQQKPGQAPRLLIYGATTRATGIPARFSGSGSGTEFTLTISSLQSEDFGVYYCQHFWGTPWTFGQGTKVEIK | 0.513
* CD81K13 HC 05-hVH_1_69 / LC 5b-hVK_1_39-GA (antibody, V domains shown, human constant region) VH: QVQLVQSGAEVKKPGSSVKVSCKASGFNFKDSYLHWVRQAPGQGLEWMGRIDTGNGNVKFDPKFQGRVTITTDESTSTAYMELSSLRSEDTAVYYCVPYGYGFHSWGQGTLVTVSS VL: DIQMTQSPSSLSASVGDRVTITCRASENIYRTLAWYQQKPGKAPKLLIYGATTLADGVPSRFSGSGSGTDFTLTISSLQPEDFATYYCQHFWGTPWTFGQGTKVEIK | 0.551
